target: HLA-DRB1*01:01 (Homo sapiens, UniProt P01903+P01911, A100R/D57E/F55L/F60I/F76Y/I96L/L162R/M171V/P40L/Q125E/R42F/V115G/Y59C); construct: EBV transformed homozygous cell lines were used as sources of MHC molecules; endogenous in cells; host or cells: EBV transformed homozygous cell lines; experiment: HLA class II peptide binding, inhibition of radiolabeled peptide binding to purified MHC; conditions: citrullinated 15-mer (X); purified MHC, inhibition of radiolabeled peptide binding; dash = IC50 >40,000 nM; read-out: DRB1*01:01 binding capacity, Cit peptide (IC50 nM)
Square brackets hold non-standard residues; d marks the D form. Peptide text beside a SMILES is read from it. Cit = NC(=O)NCCC[C@H](N)C(=O)O

molecule | uom | IC50
CC[C@H](C)[C@H](NC(=O)[C@H](CCC(=O)O)NC(=O)[C@H](CCC(=O)O)NC(=O)[C@H](CCC(N)=O)NC(=O)[C@H](CC(C)C)NC(=O)[C@H](CO)NC(=O)[C@H](CCC(=O)O)NC(=O)[C@@H](NC(=O)[C@H](CCCCN)NC(=O)[C@H](CCCNC(N)=O)NC(=O)[C@@H](N)CCC(=O)O)C(C)C)C(=O)N[C@@H](C)C(=O)N[C@@H](Cc1ccccc1)C(=O)N[C@@H](CC(C)C)C(=O)N[C@@H](CCCCN)C(=O)O [EXKVESLQEEIAFLK] (H-E[Cit]KVESLQEEIAFLK-OH) | nM | 148
CC(C)C[C@H](NC(=O)[C@H](C)NC(=O)[C@H](CO)NC(=O)CNC(=O)[C@H](CC(C)C)NC(=O)[C@H](CO)NC(=O)[C@H](Cc1ccc(O)cc1)NC(=O)[C@@H](NC(=O)[C@@H](N)CCCNC(N)=O)[C@@H](C)O)C(=O)N[C@@H](CCCNC(=N)N)C(=O)N1CCC[C@H]1C(=O)N[C@@H](CO)C(=O)N[C@H](C(=O)N[C@@H](CO)C(=O)N[C@@H](CCCNC(=N)N)C(=O)O)[C@@H](C)O [XTYSLGSALRPSTSR] (H-[Cit]TYSLGSALRPSTSR-OH) | nM | 53

----------
biological target: HLA-DRB1*01:01 (Homo sapiens, UniProt P01903+P01911, A100R/D57E/F55L/F60I/F76Y/I96L/L162R/M171V/P40L/Q125E/R42F/V115G/Y59C); construct: EBV transformed homozygous cell lines were used as sources of MHC molecules; endogenous in cells; host or cells: EBV transformed homozygous cell lines; assay: HLA class II peptide binding, inhibition of radiolabeled peptide binding to purified MHC; details: citrullinated 15-mer (X); purified MHC, inhibition of radiolabeled peptide binding; dash = IC50 >40,000 nM; read-out: DRB1*01:01 binding capacity, Cit peptide (IC50 nM)
Square brackets hold non-standard residues; d marks the D form. Peptide text beside a SMILES is read from it. Cit = NC(=O)NCCC[C@H](N)C(=O)O
# note: exactly 60 nM is not below, so it is No; use Yes for IC50 strictly under it

compound | assignedCategory
CC(C)C[C@H](NC(=O)[C@H](CCCNC(N)=O)NC(=O)[C@@H](NC(=O)[C@H](C)NC(=O)[C@H](CO)NC(=O)[C@H](CO)NC(=O)[C@H](CCCNC(=N)N)NC(=O)[C@@H](NC(=O)[C@H](C)NC(=O)[C@@H](N)Cc1ccc(O)cc1)[C@@H](C)O)C(C)C)C(=O)N[C@@H](CCCNC(=N)N)C(=O)N[C@@H](CO)C(=O)N[C@@H](CO)C(=O)N[C@H](C(=O)N1CCC[C@H]1C(=O)O)C(C)C [YATRSSAVXLRSSVP] (H-YATRSSAV[Cit]LRSSVP-OH) | Yes
CC(C)C[C@H](NC(=O)[C@H](CCCNC(=N)N)NC(=O)[C@@H](NC(=O)[C@H](C)NC(=O)[C@H](CO)NC(=O)[C@H](CO)NC(=O)[C@H](CCCNC(=N)N)NC(=O)[C@@H](NC(=O)[C@H](C)NC(=O)[C@@H](N)Cc1ccc(O)cc1)[C@@H](C)O)C(C)C)C(=O)N[C@@H](CCCNC(N)=O)C(=O)N[C@@H](CO)C(=O)N[C@@H](CO)C(=O)N[C@H](C(=O)N1CCC[C@H]1C(=O)O)C(C)C [YATRSSAVRLXSSVP] (H-YATRSSAVRL[Cit]SSVP-OH) | Yes
CC(C)C[C@H](NC(=O)[C@@H](NC(=O)[C@H](CC(N)=O)NC(=O)[C@H](CCC(=O)O)NC(=O)[C@H](C)NC(=O)[C@H](CCC(=O)O)NC(=O)[C@H](CCC(=O)O)NC(=O)[C@@H](N)CCCNC(=N)N)[C@@H](C)O)C(=O)N[C@@H](CCC(N)=O)C(=O)N[C@@H](CO)C(=O)N[C@@H](Cc1ccccc1)C(=O)N[C@@H](CCCNC(N)=O)C(=O)N[C@@H](CCC(N)=O)C(=O)N[C@@H](CC(=O)O)C(=O)N[C@H](C(=O)O)C(C)C [REEAENTLQSFXQDV] (H-REEAENTLQSF[Cit]QDV-OH) | No
CC(C)C[C@H](NC(=O)[C@H](C)NC(=O)[C@H](CO)NC(=O)CNC(=O)[C@H](CC(C)C)NC(=O)[C@H](CO)NC(=O)[C@H](Cc1ccc(O)cc1)NC(=O)[C@@H](NC(=O)[C@H](CCCNC(N)=O)NC(=O)[C@@H](NC(=O)[C@H](CO)NC(=O)[C@@H](NC(=O)[C@@H](NC(=O)[C@@H](N)C(C)C)[C@@H](C)O)[C@@H](C)O)[C@@H](C)O)[C@@H](C)O)C(=O)N[C@@H](CCCNC(=N)N)C(=O)O [VTTSTXTYSLGSALR] (H-VTTST[Cit]TYSLGSALR-OH) | Yes
